Each entry below carries its reported ELISA (OD 450) at 100 nM.
- targetDesc: soluble TSHR protein (ELISA coat) (human, UniProt P16473 22-260, limits assumed)
- protocolNotes: ELISA, plate coated with soluble TSHR, antibody at 100 nM, anti-human IgG Fc-HRP;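 further: binding of antibody variants to soluble TSHR coated at 2 µg/ml, with colour developed using TMB substrate and stopped with H2SO4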
Dear colleague, please return just the value in OD 450, with no unit written.

For orientation, consider the following solved cases.
Item under review: TSHB-4 (antibody, V domains shown) VH: EVQLVQSGAEVKKPGESLKISCKASGYELTDNWIGWVRQKPGKGLEWMGIIYPGDSDTRYSPSFQGQVTISADKSISTAYLQWSSLKASDTAIYYCVGLDWNYNPLRYWGQGTLVTVSS VL: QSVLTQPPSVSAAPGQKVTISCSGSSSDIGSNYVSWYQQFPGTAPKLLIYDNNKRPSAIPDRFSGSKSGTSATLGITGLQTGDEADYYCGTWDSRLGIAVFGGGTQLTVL . Reported ELISA (OD 450) at 100 nM? 0.453

Need ELISA (OD 450) at 100 nM, item parental TSHR-binding antibody (antibody, V domains shown, it has a human Fc (captured on anti-human Fc, detected with anti-human IgG Fc); also called parental antibody; parental anti-TSHR antibody) VH: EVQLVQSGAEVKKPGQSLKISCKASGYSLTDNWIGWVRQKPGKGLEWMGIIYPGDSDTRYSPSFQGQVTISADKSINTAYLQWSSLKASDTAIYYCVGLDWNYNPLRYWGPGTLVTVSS VL: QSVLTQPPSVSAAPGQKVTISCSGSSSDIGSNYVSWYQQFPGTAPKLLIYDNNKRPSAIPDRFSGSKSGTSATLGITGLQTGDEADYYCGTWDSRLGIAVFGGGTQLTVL 0.43

If you can, please state the reported ELISA (OD 450) at 100 nM value of TSHB-20 (antibody, V domains shown) VH: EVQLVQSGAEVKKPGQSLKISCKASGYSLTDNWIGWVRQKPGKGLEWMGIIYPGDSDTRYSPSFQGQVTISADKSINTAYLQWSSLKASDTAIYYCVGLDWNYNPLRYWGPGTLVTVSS VL: QSVLTQPPSVSAAPGQKVTISCSGSSSNIGSNYVSWYQQLPGTAPKLLIYDNNKRPSGIPDRFSGSKSGTSATLGITGLQTGDEADYYCGTWDSRLGIAVFGGGTQLTVL . 0.465

Name the recorded ELISA (OD 450) at 100 nM for TSHB-7 (antibody, V domains shown) VH: EVQLVQSGAEVKKPGESLKISCKASGYSLKDNWIGWVRQKPGKGLEWMGIIYPGDSDTRYSPSFQGQVTISADKSISTAYLQWSSLKASDTAIYYCVGLDWNYNPLRYWGQGTLVTVSS VL: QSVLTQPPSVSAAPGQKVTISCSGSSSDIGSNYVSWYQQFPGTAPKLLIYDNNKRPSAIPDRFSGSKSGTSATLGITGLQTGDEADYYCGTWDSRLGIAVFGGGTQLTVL . 0.491

Which ELISA (OD 450) at 100 nM is reported for this binder? TSHB-9 (antibody, V domains shown) VH: EVQLVQSGAEVKKPGESLKISCKASGYSLTDNWTGWVRQKPGKGLEWMGIIYPGDSDTRYSPSFQGQVTISADKSISTAYLQWSSLKASDTAIYYCVGLDWNYNPLRYWGQGTLVTVSS VL: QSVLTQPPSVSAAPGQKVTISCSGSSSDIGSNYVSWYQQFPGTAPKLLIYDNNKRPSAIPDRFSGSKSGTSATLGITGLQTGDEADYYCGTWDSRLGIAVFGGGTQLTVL 0.452

# lookup: ELISA (OD 450) at 100 nM of TSHB-1 (antibody, V domains shown) VH: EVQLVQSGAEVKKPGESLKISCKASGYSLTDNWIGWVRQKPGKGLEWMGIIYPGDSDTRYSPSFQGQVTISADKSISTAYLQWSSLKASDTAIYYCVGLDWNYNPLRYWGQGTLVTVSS VL: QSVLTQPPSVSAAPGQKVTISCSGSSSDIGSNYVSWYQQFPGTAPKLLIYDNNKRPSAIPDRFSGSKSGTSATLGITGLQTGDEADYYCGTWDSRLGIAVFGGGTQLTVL 0.506

Continuing:
Give the measured ELISA (OD 450) at 100 nM of TSHB-11 (antibody, V domains shown) VH: EVQLVQSGAEVKKPGESLKISCKASGYSLTDNWIGWVRQKPGKGLEWMGIIYPGDSDTRYSPSFQGQVTISADKSISTAYLQWSSLKASDTAIYYCVGTDWNYNPLRYWGQGTLVTVSS VL: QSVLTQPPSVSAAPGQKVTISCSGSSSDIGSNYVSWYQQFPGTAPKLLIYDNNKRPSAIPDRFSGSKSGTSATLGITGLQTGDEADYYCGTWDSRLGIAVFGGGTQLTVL . 0.22

Which ELISA (OD 450) at 100 nM is listed for TSHB-22 (antibody, V domains shown) VH: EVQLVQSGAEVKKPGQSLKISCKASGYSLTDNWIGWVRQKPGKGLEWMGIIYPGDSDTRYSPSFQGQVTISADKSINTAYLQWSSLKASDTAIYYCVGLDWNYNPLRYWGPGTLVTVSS VL: QSVLTQPPSVSGAPGQRVTISCSGSSSDIGSNYVSWYQQLPGTAPKLLIYDNNKRPSGVPDRFSGSKSGTSASLAITGLQAEDEADYYCGTWDSRLGIAVFGGGTKLTVL ? 0.493

Consider the binder TSHB-10 (antibody, V domains shown) VH: EVQLVQSGAEVKKPGESLKISCKASGYSLTDNWIGWVRQKPGKGLEWMGIIYPGDSDTRYSPSFKGQVTISADKSISTAYLQWSSLKASDTAIYYCVGLDWNYNPLRYWGQGTLVTVSS VL: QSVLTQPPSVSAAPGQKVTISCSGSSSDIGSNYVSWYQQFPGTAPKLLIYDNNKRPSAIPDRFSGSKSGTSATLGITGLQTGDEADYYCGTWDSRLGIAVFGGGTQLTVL and give its measured ELISA (OD 450) at 100 nM. 0.496

Please give the measured ELISA (OD 450) at 100 nM for this binder: TSHB-8 (antibody, V domains shown) VH: EVQLVQSGAEVKKPGESLKISCKASGYSLTDNWIGWVRQKPGKGLEWMGIIYPGDSDTRYSPSFQGQVTISADKSISTAYLQWSSLKASDTAMYYCVGLDWNYNPLRYWGQGTLVTVSS VL: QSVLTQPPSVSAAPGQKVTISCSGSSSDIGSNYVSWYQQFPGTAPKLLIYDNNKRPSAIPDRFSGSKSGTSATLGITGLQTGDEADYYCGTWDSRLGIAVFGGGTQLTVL 0.551
